System: Escherichia coli TOP10
experiment summary: shrunken log2 fold change of peptide-encoding DNA abundance (4.5 h post-induction vs induction); higher = less antimicrobial activity (less host growth inhibition)
experimental setup: time post-induction: 4.5 h; library: site-saturation at positions 5, 18, 19, 20
endpoint name: shrunken log2 fold change

- sequence text: "RRIRWRPPRLPRPRPRPQFNPRP"
  result: -0.498
- sequence text: "RRIRFRPPRLPRPRPRPSQIPRP"
  result: -0.253
- sequence text: "RRIRGRPPRLPRPRPRPGQCPRP"
  result: 0.275
- sequence text: "RRIRDRPPRLPRPRPRPLMTPRP"
  result: 0.195
- sequence text: "RRIRTRPPRLPRPRPRPHLQPRP"
  result: -0.321
- sequence text: "RRIRKRPPRLPRPRPRPRCYPRP"
  result: -0.181
- sequence text: "RRIRVRPPRLPRPRPRPSAHPRP"
  result: -0.0182
- sequence text: "RRIRERPPRLPRPRPRPSWMPRP"
  result: -0.416

* * *

Tested on: Escherichia coli TOP10
experiment summary: shrunken log2 fold change of peptide-encoding DNA abundance (4.5 h post-induction vs induction); higher = less antimicrobial activity (less host growth inhibition)
experimental setup: time post-induction: 4.5 h; library: site-saturation at positions 5, 18, 19, 20
Grouping by measured shrunken log2 fold change is done with the following cut points: lower level: < -0.1; middle level: ≥ -0.1 and < 0.03; upper level: ≥ 0.03

- sequence text: "RRIRQRPPRLPRPRPRPELSPRP"
  group: "middle level"
- sequence text: "RRIRTRPPRLPRPRPRPIKWPRP"
  group: "middle level"
- sequence text: "RRIRPRPPRLPRPRPRPIQFPRP"
  group: "lower level"
- sequence text: "RRIRTRPPRLPRPRPRPAKRPRP"
  group: "upper level"
- sequence text: "RRIRGRPPRLPRPRPRPVQDPRP"
  group: "upper level"
- sequence text: "RRIRLRPPRLPRPRPRPYTLPRP"
  group: "lower level"
- sequence text: "RRIRWRPPRLPRPRPRPHTFPRP"
  group: "middle level"
- sequence text: "RRIRCRPPRLPRPRPRPMIKPRP"
  group: "lower level"
- sequence text: "RRIRMRPPRLPRPRPRPYAIPRP"
  group: "middle level"
- sequence text: "RRIRARPPRLPRPRPRPMEQPRP"
  group: "upper level"
- sequence text: "RRIRGRPPRLPRPRPRPRTKPRP"
  group: "upper level"
- sequence text: "RRIRWRPPRLPRPRPRPWYCPRP"
  group: "upper level"
- sequence text: "RRIRERPPRLPRPRPRPGSVPRP"
  group: "middle level"
- sequence text: "RRIRERPPRLPRPRPRPCYPPRP"
  group: "lower level"

* * *

Tested on: Escherichia coli TOP10;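 also: peptides expressed intracellularly from a pBAD plasmid library in pooled LB shake-flask culture, induced with 0.3% L-arabinose, DNA abundance read by NGS, three biological replicates, DESeq2 with apeglm shrinkage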
experiment summary: shrunken log2 fold change of peptide-encoding DNA abundance (4.5 h post-induction vs induction); higher = less antimicrobial activity (less host growth inhibition)
experimental setup: time post-induction: 4.5 h; library: site-saturation at positions 5, 18, 19, 20
Criterion: shrunken log2 fold change meeting or surpassing -0.1. Met: criterion met. Not met: criterion not met.

- sequence text: "RRIRKRPPRLPRPRPRPDNHPRP"
  group: "criterion not met"
- sequence text: "RRIRARPPRLPRPRPRPNTYPRP"
  group: "criterion not met"
- sequence text: "RRIRNRPPRLPRPRPRPAEIPRP"
  group: "criterion not met"
- sequence text: "RRIRIRPPRLPRPRPRPCCAPRP"
  group: "criterion not met"
- sequence text: "RRIRTRPPRLPRPRPRPSSIPRP"
  group: "criterion not met"
- sequence text: "RRIRTRPPRLPRPRPRPIIFPRP"
  group: "criterion met"
- sequence text: "RRIRNRPPRLPRPRPRPSDDPRP"
  group: "criterion met"
- sequence text: "RRIRPRPPRLPRPRPRPALYPRP"
  group: "criterion met"
- sequence text: "RRIRMRPPRLPRPRPRPQDEPRP"
  group: "criterion met"
- sequence text: "RRIRARPPRLPRPRPRPKMCPRP"
  group: "criterion met"
- sequence text: "RRIRLRPPRLPRPRPRPMQRPRP"
  group: "criterion met"
- sequence text: "RRIRDRPPRLPRPRPRPGFLPRP"
  group: "criterion met"
- sequence text: "RRIRHRPPRLPRPRPRPFQQPRP"
  group: "criterion met"
- sequence text: "RRIRDRPPRLPRPRPRPEFLPRP"
  group: "criterion met"
- sequence text: "RRIRSRPPRLPRPRPRPMVSPRP"
  group: "criterion met"
- sequence text: "RRIRHRPPRLPRPRPRPGSHPRP"
  group: "criterion not met"
- sequence text: "RRIRGRPPRLPRPRPRPQGWPRP"
  group: "criterion met"
- sequence text: "RRIRFRPPRLPRPRPRPQDEPRP"
  group: "criterion met"
- sequence text: "RRIRLRPPRLPRPRPRPNHQPRP"
  group: "criterion not met"
- sequence text: "RRIRHRPPRLPRPRPRPCILPRP"
  group: "criterion not met"
- sequence text: "RRIRTRPPRLPRPRPRPGSSPRP"
  group: "criterion not met"
- sequence text: "RRIRHRPPRLPRPRPRPRSYPRP"
  group: "criterion not met"
- sequence text: "RRIRGRPPRLPRPRPRPATWPRP"
  group: "criterion met"
- sequence text: "RRIRARPPRLPRPRPRPCMNPRP"
  group: "criterion met"
- sequence text: "RRIRKRPPRLPRPRPRPAISPRP"
  group: "criterion met"
- sequence text: "RRIRQRPPRLPRPRPRPNICPRP"
  group: "criterion met"
- sequence text: "RRIRYRPPRLPRPRPRPNNDPRP"
  group: "criterion not met"
- sequence text: "RRIRVRPPRLPRPRPRPVFQPRP"
  group: "criterion met"
- sequence text: "RRIRKRPPRLPRPRPRPKVCPRP"
  group: "criterion met"
- sequence text: "RRIRYRPPRLPRPRPRPYHPPRP"
  group: "criterion not met"
- sequence text: "RRIRYRPPRLPRPRPRPPLCPRP"
  group: "criterion not met"
- sequence text: "RRIRQRPPRLPRPRPRPYWCPRP"
  group: "criterion not met"
- sequence text: "RRIRIRPPRLPRPRPRPHKLPRP"
  group: "criterion not met"
- sequence text: "RRIRNRPPRLPRPRPRPEQMPRP"
  group: "criterion met"
- sequence text: "RRIRPRPPRLPRPRPRPRFSPRP"
  group: "criterion met"
- sequence text: "RRIRFRPPRLPRPRPRPKHMPRP"
  group: "criterion not met"
- sequence text: "RRIRVRPPRLPRPRPRPGQYPRP"
  group: "criterion not met"
- sequence text: "RRIRKRPPRLPRPRPRPNCHPRP"
  group: "criterion not met"
- sequence text: "RRIRTRPPRLPRPRPRPRMNPRP"
  group: "criterion not met"
- sequence text: "RRIRFRPPRLPRPRPRPNPMPRP"
  group: "criterion not met"
- sequence text: "RRIRYRPPRLPRPRPRPYLGPRP"
  group: "criterion not met"
- sequence text: "RRIRHRPPRLPRPRPRPKNTPRP"
  group: "criterion not met"
- sequence text: "RRIRPRPPRLPRPRPRPYIWPRP"
  group: "criterion not met"
- sequence text: "RRIRQRPPRLPRPRPRPARCPRP"
  group: "criterion met"
- sequence text: "RRIRQRPPRLPRPRPRPNGQPRP"
  group: "criterion not met"
- sequence text: "RRIRRRPPRLPRPRPRPQWQPRP"
  group: "criterion met"
- sequence text: "RRIRERPPRLPRPRPRPTVYPRP"
  group: "criterion not met"
- sequence text: "RRIRQRPPRLPRPRPRPWTPPRP"
  group: "criterion met"
- sequence text: "RRIRGRPPRLPRPRPRPEFHPRP"
  group: "criterion met"
- sequence text: "RRIRVRPPRLPRPRPRPLVVPRP"
  group: "criterion not met"
- sequence text: "RRIRERPPRLPRPRPRPSVLPRP"
  group: "criterion not met"
- sequence text: "RRIRQRPPRLPRPRPRPTIFPRP"
  group: "criterion met"
- sequence text: "RRIRWRPPRLPRPRPRPMLRPRP"
  group: "criterion met"
- sequence text: "RRIRTRPPRLPRPRPRPDIPPRP"
  group: "criterion met"
- sequence text: "RRIRQRPPRLPRPRPRPWDVPRP"
  group: "criterion met"
- sequence text: "RRIRYRPPRLPRPRPRPGWWPRP"
  group: "criterion met"
- sequence text: "RRIRKRPPRLPRPRPRPYKEPRP"
  group: "criterion not met"
- sequence text: "RRIRDRPPRLPRPRPRPYMIPRP"
  group: "criterion not met"
- sequence text: "RRIRNRPPRLPRPRPRPQTYPRP"
  group: "criterion not met"
- sequence text: "RRIRTRPPRLPRPRPRPVEMPRP"
  group: "criterion not met"
- sequence text: "RRIRKRPPRLPRPRPRPKQKPRP"
  group: "criterion met"
- sequence text: "RRIRNRPPRLPRPRPRPRTRPRP"
  group: "criterion met"
